Where do these numbers come from? They come from paper PMC9516332.

Target: panel of 255 wild-type kinases (Homo sapiens)
Sequence (Q9BXA7 whole entry): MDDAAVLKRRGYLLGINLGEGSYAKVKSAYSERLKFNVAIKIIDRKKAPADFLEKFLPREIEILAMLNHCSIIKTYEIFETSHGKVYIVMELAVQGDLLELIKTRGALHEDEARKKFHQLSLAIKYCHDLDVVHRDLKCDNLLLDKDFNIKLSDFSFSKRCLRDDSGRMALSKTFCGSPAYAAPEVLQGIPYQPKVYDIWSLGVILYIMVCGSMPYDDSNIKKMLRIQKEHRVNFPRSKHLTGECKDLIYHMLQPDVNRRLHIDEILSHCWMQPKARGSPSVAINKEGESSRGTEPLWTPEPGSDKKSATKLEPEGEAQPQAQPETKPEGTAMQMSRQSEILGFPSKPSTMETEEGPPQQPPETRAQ
Experiment: Kinase panel profiling at 1 µmol/L (MSA or IMAP), percentage inhibition
Assay type: biochemical
Settings: kinase TSSK1; 1 µmol/L single concentration; read-out: %-inhibition at 1 µmol/L, TSSK1
Listed here are compounds together with their documented inhibition at 1 µM.
observable: inhibition at 1 µM (%)

query.smiles: COc1ccc(CN2C3CC2CN(c2ccc(-c4cc(OCC(C)(C)O)cn5ncc(C#N)c45)cn2)C3)cn1
val: 45

query.smiles: Cn1cnc2c(F)c(Nc3ccc(Br)cc3F)c(C(=O)NOCCO)cc21
val: 0.849

query.smiles: FC(F)(F)c1ccc(CNc2ccc(Cc3c[nH]c4ncc(Cl)cc34)cn2)cn1
val: 12

query.smiles: CN1CCN(c2ccc(C(=O)Nc3n[nH]c4ccc(Cc5cc(F)cc(F)c5)cc34)c(NC3CCOCC3)c2)CC1
val: 8
